# Assay overview: toxicity of DSG to cells in culture
# Format: cell-based
# Measurement conditions: up to 72 h; read-out: concentrations toxic to most of the cell types tested
Metric name: MCC at 72 h

Asked: Quick one: MCC at 72 h of N=C(N)NCCCCCCC(=O)NC(O)C(=O)NCCCCNCCCN (stereo not shown) [DSG, deoxyspergualin] ?
Given back: > 50 µg/mL
